- target system: M1 muscarinic receptor (Homo sapiens, UniProt P11229)
- Construct: expressed in transfected cells; host or cells: CHO (M1-CHO)
- Sequence (P11229 whole entry): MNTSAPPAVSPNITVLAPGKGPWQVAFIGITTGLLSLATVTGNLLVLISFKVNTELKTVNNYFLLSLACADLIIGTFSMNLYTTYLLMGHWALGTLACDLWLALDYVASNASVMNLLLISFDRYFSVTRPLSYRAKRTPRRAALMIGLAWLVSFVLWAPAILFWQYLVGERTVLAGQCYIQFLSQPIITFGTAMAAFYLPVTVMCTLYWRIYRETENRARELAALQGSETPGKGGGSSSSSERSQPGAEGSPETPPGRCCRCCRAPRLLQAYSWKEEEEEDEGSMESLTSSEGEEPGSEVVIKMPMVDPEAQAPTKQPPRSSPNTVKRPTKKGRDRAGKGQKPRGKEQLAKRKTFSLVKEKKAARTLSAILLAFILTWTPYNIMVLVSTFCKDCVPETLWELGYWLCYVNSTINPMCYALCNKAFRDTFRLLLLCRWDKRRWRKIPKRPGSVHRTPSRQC
- method description: Functional mobilization of intracellular calcium (FLIPR) in M1-CHO cells
- Type: cell-based
- particulars: Table 4; 100% efficacy is the maximum response obtained with the Carbachol control
Below, each entry is listed alongside its reported Emax.

Below: 5 compounds and their reported Emax.
CN(C)C(=O)N1CC2(CCN(C3CCN(C(=O)c4ccccc4F)CC3)CC2)c2cc(F)ccc21 ... 25 to 100%
CN(C)C(=O)N1CC2(CCN(C[C@H]3CCN(C(=O)OCC4CC4)C3)CC2)c2cc(F)ccc21 ... 25 to 100%
COC(=O)NC1CC2(CCN(C3C[C@@H]4CC[C@@H]3C4)CC2)c2ccccc21 (some centres unmarked) ... 25 to 100%
Cc1ccc2c(c1)C1(CCN(C3CC4CCC3C4)CC1)CN2C(=O)c1ccccc1 (centres unmarked) ... < 25%
CCN(CC)C(=O)N[C@H]1CC2(CCN(C3CC4CC[C@@H]3C4)CC2)c2ccccc21 (some centres unmarked) ... < 25%

stdin: What does the record list as Emax for CCOC(=O)N1CCC(N2CCC3(CC2)CN(C(C)=O)c2c(-c4cccc(C)c4)cccc23)CC1 ?
stdout: 25 to 100%

stdin: What do you have for CN(C)C(=O)N1CC2(CCN(C3CCCN(C(=O)OCC(F)F)CC3)CC2)c2cc(F)ccc21 (centres unmarked) ?
stdout: 25 to 100%

stdin: Then what about the compound CCOC(=O)N1CCC(N2CCC3(CC2)CN(C(=O)N2CCCC2)c2ccccc23)CC1 ?
stdout: 25 to 100%

---

This listing pairs compounds with measured pEC50.
- target system: M1 muscarinic receptor (Homo sapiens)
- Construct: expressed in transfected cells; host or cells: CHO (M1-CHO)
- method description: Functional mobilization of intracellular calcium (FLIPR) in M1-CHO cells
- Type: cell-based
- particulars: M1-CHO cells, calcium mobilization (FLIPR)
pEC50: −log10 of the molar value.

stdin: What value of pEC50 on M1 muscarinic receptor (Homo sapiens) does COCCOC(=O)N1CCC(CN2CCC3(CC2)CN(C(C)=O)c2ccc(C)cc23)CC1 have?
stdout: < 6.00

stdin: Now give it for CCOC(=O)N1CCC(N2CCC3(CC2)CN(C(C)=O)c2ccc(-c4ccc(C(N)=O)cc4)cc23)CC1 too.
stdout: 6.00 to 7.00

stdin: Same question for CC(=O)CN1CC2(CCN(C[C@@H]3C[C@H]4C=C[C@H]3C4)CC2)c2cc(F)ccc21 please.
stdout: 6.00 to 7.00

stdin: Now the compound CC(C)OC(=O)N1C2CCC1CC(N1CCC3(CC1)CN(C(=O)O[C@@H]1CCOC1)c1ccc(F)cc13)C2 (stereo partly shown)
stdout: 6.00 to 7.00

---

- target system: M4 muscarinic receptor (Homo sapiens, UniProt P08173)
- Construct: expressed in transfected cells; host or cells: CHO (M4-CHO)
- Sequence (P08173 1-479): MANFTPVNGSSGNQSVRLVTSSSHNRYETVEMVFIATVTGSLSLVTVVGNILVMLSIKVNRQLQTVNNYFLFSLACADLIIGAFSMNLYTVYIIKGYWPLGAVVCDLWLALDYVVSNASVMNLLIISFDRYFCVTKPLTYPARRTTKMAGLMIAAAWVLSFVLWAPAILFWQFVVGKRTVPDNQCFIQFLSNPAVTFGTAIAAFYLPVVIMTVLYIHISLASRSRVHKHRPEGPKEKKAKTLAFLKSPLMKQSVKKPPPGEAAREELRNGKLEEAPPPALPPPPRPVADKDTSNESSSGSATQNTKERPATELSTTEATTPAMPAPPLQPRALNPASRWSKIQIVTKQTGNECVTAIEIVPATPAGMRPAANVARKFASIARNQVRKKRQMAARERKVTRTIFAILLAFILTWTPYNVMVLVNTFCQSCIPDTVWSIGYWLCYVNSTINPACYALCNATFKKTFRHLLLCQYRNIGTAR
- method description: Functional mobilization of intracellular calcium (FLIPR) in M4-CHO cells
- Type: cell-based
- particulars: Table 4; 100% efficacy is the maximum response obtained with the Carbachol control
Consider the following molecules and their measured Emax readings.

Cc1cc(C(=O)N2CCC(N3CCC4(CC3)CN(C(=O)N(C)C)c3ccc(F)cc34)CC2)nn1C ... < 25%
CCOC(=O)N1CCC(N2CCC3(CC2)CN(C(C)=O)c2c(-c4ccc(C(F)(F)F)cc4)cccc23)CC1 ... 25 to 100%
CC(=O)N[C@H]1CC2(CCN(C3CCCCC3)C2)c2ccc(F)cc21 (stereo partly shown) ... < 25%
CN(C)C(=O)N1CC2(CCN(C[C@H]3CCN(C(=O)OCC(F)F)C3)CC2)c2cc(F)ccc21 ... > 100%
COCCN1CC2(CCN(C3CCN(C(=O)OCCF)CC3)CC2)c2cc(F)ccc21 ... 25 to 100%

stdin: Would you mind telling me what Emax value was observed for CCCC#CCOC(=O)N1CCC(N2CCC3(CC2)CN(C(C)=O)c2ccccc23)CC1 ?
stdout: < 25%

stdin: Now this one: CCOC(=O)N1C2CCC1CC(N1CCC3(CC1)CN(C(C)=O)c1ccc(OC(F)(F)F)cc13)C2 (stereo not shown)
stdout: 25 to 100%

stdin: Same question for CCCOC(=O)N1CCC(N2CCC3(CC2)CN(C(C)=O)c2ccccc23)CC1 please.
stdout: < 25%

stdin: Param item: CCOC(=O)N1CCC(N2CCC3(CC2)CN(C(C)=O)c2c(-c4ccsc4)cccc23)CC1
stdout: < 25%

stdin: Then CCOC(=O)N1CCC(CN2CCC3(CC2)CN(C(C)=O)c2c(C)cccc23)CC1 ?
stdout: 25 to 100%

stdin: Please give the result for CC(=O)N[C@H]1CCC2(CCN(CC3CC4CCC3C4)CC2)c2ccccc21 (stereo partly shown) too.
stdout: 25 to 100%

stdin: Please give the result for CCOC(=O)N1CCC(N2CCC3(CC2)CN(C(C)=O)c2cccc(OC)c23)CC1 too.
stdout: < 25%

stdin: Thanks! And CN(C)C(=O)N[C@H]1CCC2(CCN([C@@H]3C[C@@H]4CC[C@H]3C4)CC2)c2ccccc21 ?
stdout: 25 to 100%

stdin: Input Cc1cc(C(=O)N2CCC(N3CCC4(CC3)CN(C(=O)N(C)C)c3ccc(F)cc34)CC2)no1
stdout: < 25%

stdin: Let us now turn to O=C1CCCN1[C@H]1CCC2(CCN(C3CCCCCC3)CC2)c2ccccc21
stdout: 25 to 100%

stdin: # repeat for CCC#CCOC(=O)N1CC[C@H](CN2CCC3(CC2)CN(C(C)=O)c2cccc(C)c23)C1
stdout: 25 to 100%

---

- target system: M1 muscarinic receptor (Homo sapiens)
- Construct: expressed in transfected cells; host or cells: CHO (M1-CHO)
- method description: Functional mobilization of intracellular calcium (FLIPR) in M1-CHO cells
- Format: cell-based
- particulars: Table 4; 100% efficacy is the maximum response obtained with the Carbachol control
endpoint label: Emax

O=C1CCCN1[C@H]1CCC2(CCN(C3CCCCCC3)CC2)c2ccccc21 ... 25 to 100%
CC(=O)N1CC2(CCN(CC3CCN(C(=O)OC4CCC4)CC3)CC2)c2cc(F)ccc21 ... < 25%
O=C1CCCN1[C@H]1CCC2(CCN([C@H]3CC4CC[C@H](C4)C3)CC2)c2ccccc21 ... 25 to 100%

stdin: // Emax lookup, key: CN(C)C(=O)N1CC2(CCN(C[C@@H]3CCN(C(=O)OCC4CC4)C3)CC2)c2cc(F)ccc21
stdout: 25 to 100%

stdin: Same question for CCOC(=O)N1C2CCC1CC(N1CCC3(CC[C@@H](NC(C)=O)c4ccccc43)CC1)C2 (stereo partly shown) please.
stdout: 25 to 100%

stdin: Ok, now CN(C)C(=O)N1CC2(CCN(C3CCN(C(=O)c4ccsc4)CC3)CC2)c2cc(F)ccc21
stdout: 25 to 100%

stdin: Same again, this time with CCOC(=O)N1CCC(N2CCC3(CC2)CN(C(C)=O)c2cccc(C(F)(F)F)c23)CC1
stdout: 25 to 100%

stdin: Moving on to CC(=O)NC1CC2(CCN(C3CCN(C(=O)c4cccc(C(F)(F)F)c4)CC3)CC2)c2ccccc21 (stereo not shown)
stdout: < 25%

stdin: Thanks! And CCOC(=O)N1CCC(N2CCC3(CC2)CN(C(C)=O)c2c(-c4ccccc4)cccc23)CC1 ?
stdout: 25 to 100%

stdin: Can you check COCC(=O)N1CCC(N2CCC3(CC2)CN(C(=O)N(C)C)c2ccc(F)cc23)CC1 next?
stdout: 25 to 100%

stdin: Another compound to check: CC(=O)N[C@H]1CCC2(CCN(C[C@H]3C[C@H]4C=CC3C4)CC2)c2ccccc21
stdout: 25 to 100%
